System: blood cancer cell lines (e.g. HL-60, Jurkat, Raji, Ramos, Daudi, MOLT-4)
Test: Cell based assay, cell viability (CellTiter-Glo), blood cancer cell lines
Conditions: Homo sapiens, blood cancer cell line HL-60, 72 hours, read-out: IC50, HL-60
Reported IC50 values are given for each entry in this list.
Readout label: IC50 (nM)

1) CC(=O)c1c([S+](C)[O-])[nH]c2c(Cl)ccc(Cl)c2c1=O (stereo not shown)
1650
2) CC(=O)c1c([S+]([O-])Cc2ccccc2C#N)[nH]c2c(Br)ccc(Cl)c2c1=O (stereo not shown)
870

----------
Test system: blood cancer cell lines (e.g. HL-60, Jurkat, Raji, Ramos, Daudi, MOLT-4)
Experiment: Cell based assay, cell viability (CellTiter-Glo), blood cancer cell lines
Conditions: Homo sapiens, blood cancer cell line Jurkat, 72 hours, read-out: IC50, Jurkat
pIC50: −log10 of the molar value.
Readout label: pIC50

1) CC(=O)c1c([S+]([O-])Cc2ccc(F)cc2F)[nH]c2c(Br)ccc(Cl)c2c1=O (stereo not shown)
5.97
2) CC(=O)c1c([S+]([O-])Cc2ccc(S(F)(F)(F)(F)F)cc2)[nH]c2c(Br)ccc(Cl)c2c1=O (stereo not shown)
6.00

----------
System: breast cancer cell lines (e.g. MDA-MB-231, SK-BR-3, MDA-MB-468, HCC1954)
Test: Cell based assay, cell viability (CellTiter-Glo), breast cancer cell lines
Conditions: Homo sapiens; Breast cancer cell line SK-BR-3; 72 hours; CellTiter-Glo; read-out: IC50, SK-BR-3
pIC50: −log10 of the molar value.
Readout label: pIC50

1. COc1cc(S(F)(F)(F)(F)F)ccc1C[S+]([O-])c1[nH]c2c(Br)ccc(Cl)c2c(=O)c1C(C)=O (centres unmarked) [Compound 75]
5.77
2. CC(=O)c1c([S+]([O-])Cc2cc(C)on2)[nH]c2c(Br)ccc(Cl)c2c1=O (centres unmarked) [Compound 51]
6.27
3. CC(=O)c1c([S+]([O-])Cc2cc(Cl)ccc2Cl)[nH]c2c(Br)ccc(Cl)c2c1=O (centres unmarked) [Compound 44]
5.97
4. CC(=O)c1c([S+]([O-])Cc2c(F)c(F)c(F)c(F)c2F)[nH]c2c(Br)ccc(Cl)c2c1=O (centres unmarked) [Compound 78]
5.92
5. CC(=O)c1c([S+]([O-])Cc2c(F)cccc2Cl)[nH]c2c(Br)ccc(Cl)c2c1=O (centres unmarked) [Compound 74]
5.97
6. COc1cccc(C[S+]([O-])c2[nH]c3c(Br)ccc(Cl)c3c(=O)c2C(C)=O)c1 (centres unmarked) [Compound 55]
5.96

----------
System: bladder cancer cell lines
Experiment: Cell based assay, cell viability (CellTiter-Glo), bladder cancer cell lines
Conditions: 5637 cells; 72 hours treatment; 0 to 2 μM; CellTiter-Glo; read-out: IC50, bladder cancer cell line 5637
pIC50: −log10 of the molar value.
Readout label: pIC50

1. CC(=O)c1c([S+](C)[O-])n(Cc2ccc(F)c(Cl)c2)c2c(Br)ccc(Cl)c2c1=O (stereo not shown)
< 5.70
2. COc1cc(C[S+]([O-])c2[nH]c3c(Br)ccc(Cl)c3c(=O)c2C(C)=O)cc(OC)c1 (stereo not shown)
< 5.70
3. CC(=O)c1c([S+]([O-])Cc2nonc2C)[nH]c2c(Br)ccc(Cl)c2c1=O (stereo not shown)
< 5.70
4. CC(=O)c1c([S+]([O-])Cc2ccc(F)c(Cl)c2)[nH]c2c(Br)ccc(Cl)c2c1=O (stereo not shown)
5.91
5. CC(=O)c1c(S(C)(=O)=O)n(S(=O)(=O)c2ccc(C(C)(C)C)cc2)c2c(Br)ccc(Cl)c2c1=O
< 5.70
6. CC(=O)c1c([S+]([O-])Cc2ccc(C(=O)c3ccccc3)cc2)[nH]c2c(Br)ccc(Cl)c2c1=O (stereo not shown)
< 5.70
7. CC(=O)c1c([S+]([O-])c2ccccc2)[nH]c2c(Br)ccc(Cl)c2c1=O (stereo not shown)
< 5.70
8. COCCNc1ccc(C[S+]([O-])c2[nH]c3c(Br)ccc(Cl)c3c(=O)c2C(C)=O)cn1 (stereo not shown)
< 5.70
9. CC(=O)c1c([S+](C)[O-])[nH]c2c(Cl)ccc(Cl)c2c1=O (stereo not shown)
5.77
10. CC(=O)c1c(SCC#N)[nH]c2c(Br)ccc(Cl)c2c1=O
< 5.70

----------
Reported IC50 values are given for each entry in this list.
Test system: lung cancer cell lines (e.g. NCI-H23, NCI-H1229)
Assay: Cell based assay, cell viability (CellTiter-Glo), lung cancer cell lines
Conditions: Homo sapiens; MRC-5 cells; 72 hours treatment; CellTiter-Glo; read-out: IC50
Source text: Commercially available bladder cancer, prostate cancer, lung cancer, breast cancer, blood cancer, pancreatic cancer, colorectal cancer, brain cancer, neuroblastoma, melanoma, liver cancer, cervical carcinoma, ovarian cancer, renal cancer, and papilloma cell lines were each treated with trypsin-EDTA and cultured, followed by being seeded in each well of a 96 well plate. […]
Readout label: IC50

1. CC(=O)c1c(S(C)(=O)=O)n(S(=O)(=O)c2ccc(C(C)(C)C)cc2)c2c(Br)ccc(Cl)c2c1=O
> 2 µM
2. CC(=O)c1c([S+]([O-])Cc2cccnc2)[nH]c2c(Br)ccc(Cl)c2c1=O (centres unmarked)
1.29 µM
3. CC(=O)c1c(S(C)(=O)=O)n(C(=O)c2ccc(Br)cc2)c2c(Br)ccc(Cl)c2c1=O
> 2 µM
4. COc1cccc(C[S+]([O-])c2[nH]c3c(Br)ccc(Cl)c3c(=O)c2C(C)=O)c1 (centres unmarked)
> 2 µM
5. CC(C)C(=O)c1c([S+]([O-])Cc2ccc(SC(F)(F)F)cc2)[nH]c2c(F)ccc(F)c2c1=O (centres unmarked)
> 2 µM

----------
Reported pIC50 values are given for each entry in this list.
Test system: ovarian cancer cell lines
Test: Cell based assay, cell viability (CellTiter-Glo), ovarian cancer cell lines
Conditions: Homo sapiens; OVCAR-3 cells
pIC50: −log10 of the molar value.
Readout label: pIC50

1) CSc1c(C(C)=O)c(=O)c2c(Cl)ccc(Br)c2n1S(=O)(=O)c1ccc(C(C)(C)C)cc1
< 5.70
2) CC(=O)c1c(SCc2cc(F)cc(F)c2)[nH]c2c(Br)ccc(Cl)c2c1=O
< 5.70
3) COCSc1[nH]c2c(Br)ccc(Cl)c2c(=O)c1C(C)=O
< 5.70

----------
Reported pIC50 values are given for each entry in this list.
Test system: lung cancer cell lines (e.g. NCI-H23, NCI-H1229)
Assay: Cell based assay, cell viability (CellTiter-Glo), lung cancer cell lines
Settings: Homo sapiens; NCI-H522 cells; 72 hours treatment; CellTiter-Glo; read-out: IC50, lung cancer cell line NCI-H522
pIC50: −log10 of the molar value.
Readout label: pIC50

1) CC(=O)c1c(SCc2ccccc2)n(C(=O)c2ccc(Br)cc2)c2c(Br)ccc(Cl)c2c1=O
< 5.70
2) COC(=O)c1ccc(C[S+]([O-])c2[nH]c3c(Cl)ccc(Cl)c3c(=O)c2C(C)=O)o1 (stereo not drawn)
< 5.70
3) Cc1cc(C[S+]([O-])c2[nH]c3c(Cl)ccc(Cl)c3c(=O)c2C(=O)C2CC2)no1 (stereo not drawn)
5.88

----------
Tested on: prostate cancer cell lines (e.g. DU145/TXR)
Assay: Cell based assay, cell viability (CellTiter-Glo), prostate cancer cell lines
Settings: Homo sapiens, PC-3 cells, 72 hours treatment, final concentration 0 to 2 μM, read-out: IC50, prostate cancer cell line PC-3
Readout label: IC50

1. CC(=O)c1c([S+]([O-])CN2C(=O)c3ccccc3C2=O)[nH]c2c(Cl)ccc(Cl)c2c1=O (stereo not drawn)
> 2000 nM
2. CC(=O)c1c([S+]([O-])CC#N)[nH]c2c(Br)ccc(Cl)c2c1=O (stereo not drawn)
> 2000 nM
3. CC(=O)c1c(S)[nH]c2c(Br)ccc(Cl)c2c1=O
> 2000 nM

----------
Reported IC50 values are given for each entry in this list.
Test system: brain cancer cell lines
Assay: Cell based assay, cell viability (CellTiter-Glo), brain cancer cell lines
Settings: Homo sapiens, U138-MG; U-138 MG cell line; read-out: IC50, Brain cancer cell line U-138 MG
Readout label: IC50

1) CC(=O)c1c([S+]([O-])Cc2ccc(SC(F)(F)F)cc2)[nH]c2c(Cl)ccc(Cl)c2c1=O (stereo not drawn)
> 10 µM
2) CSc1c(C(C)=O)c(=O)c2c(Cl)ccc(Br)c2n1C
> 10 µM
3) CC(=O)c1c([S+]([O-])Cc2ccc(Cl)cc2)[nH]c2c(Br)ccc(Cl)c2c1=O (stereo not drawn)
> 2 µM

----------
System: colorectal cancer cell lines (e.g. DLD-1, HCT 116, SW620, HCT-15, HCT-8, RKO)
Experiment: Cell based assay, cell viability (CellTiter-Glo), colorectal cancer cell lines
Details: Homo sapiens, HCT 116 cells, 72 hours treatment, read-out: IC50, colorectal cancer cell line HCT 116
Source text: Commercially available bladder cancer, prostate cancer, lung cancer, breast cancer, blood cancer, pancreatic cancer, colorectal cancer, brain cancer, neuroblastoma, melanoma, liver cancer, cervical carcinoma, ovarian cancer, renal cancer, and papilloma cell lines were each treated with trypsin-EDTA and cultured, followed by being seeded in each well of a 96 well plate. […]
Reported IC50 values are given for each entry in this list.
Readout label: IC50

1. COc1cccc2[nH]c([S+]([O-])Cc3ccc(S(F)(F)(F)(F)F)cc3)c(C(C)=O)c(=O)c12 (stereo not shown) [Compound 93]
> 2000 nM
2. COc1cccc2[nH]c([S+]([O-])Cc3cc(C)on3)c(C(C)=O)c(=O)c12 (stereo not shown) [Compound 94]
> 2000 nM
3. COC(=O)c1ccc(C[S+]([O-])c2[nH]c3c(Cl)ccc(Cl)c3c(=O)c2C(C)=O)cc1 (stereo not shown) [Compound 91]
> 2000 nM
4. CC(=O)c1c([S+]([O-])Cc2ccc(I)cc2)[nH]c2c(Cl)ccc(Cl)c2c1=O (stereo not shown) [Compound 83]
1800 nM
